B1: Pistol ribozyme (parent)
chain: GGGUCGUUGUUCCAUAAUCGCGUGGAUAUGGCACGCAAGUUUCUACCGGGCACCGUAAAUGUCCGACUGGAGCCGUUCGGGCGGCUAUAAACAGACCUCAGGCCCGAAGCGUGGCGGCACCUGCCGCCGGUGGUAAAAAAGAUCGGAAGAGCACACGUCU

variants of: B1; assay: aptazyme ON/OFF ratio, guanine; higher = stronger switching; co-transcriptional cleavage with and without guanine
endpoint-label: aptazyme ON/OFF ratio
Reply: number alone, nothing else.

Quote aptazyme ON/OFF ratio reported for U7A G9U U10C U11C C12G C13U please.
1.01

Quote aptazyme ON/OFF ratio reported for U7A U8A G9U U10C U11A C12U please.
1.23

Quote aptazyme ON/OFF ratio reported for U7C U8G G9C U10A U11C C12A C13U please.
1.17

Quote aptazyme ON/OFF ratio reported for U7G U8G G9A U11C C13G please.
1.12

Quote aptazyme ON/OFF ratio reported for U7C U8G G9U U10G C13A please.
1.19

Quote aptazyme ON/OFF ratio reported for U7C U8C U10G C12A C13A please.
1.1

Quote aptazyme ON/OFF ratio reported for U7A U8C U10G U11C C12U C13U please.
1.51

Quote aptazyme ON/OFF ratio reported for U7G U8A G9A U10C U11C C12A C13A please.
1.07

Quote aptazyme ON/OFF ratio reported for U7C G9C U11A please.
1.03

Quote aptazyme ON/OFF ratio reported for U7A U8G G9A U10C U11G C12G C13G please.
1.16

Quote aptazyme ON/OFF ratio reported for U8A G9A U10A U11A C12A please.
1.24

Quote aptazyme ON/OFF ratio reported for U7C U8C U10A U11G C12U C13A please.
1.11

Quote aptazyme ON/OFF ratio reported for U8C U10C U11G C12G C13U please.
1.08

Quote aptazyme ON/OFF ratio reported for U7A U8A G9C U10A U11G C13A please.
1.17

Quote aptazyme ON/OFF ratio reported for U7C U8A U10C C12A C13G please.
1.07

Quote aptazyme ON/OFF ratio reported for U7C U8C G9A U10C please.
1.45

Quote aptazyme ON/OFF ratio reported for U8G U10C C13A please.
1.05

Quote aptazyme ON/OFF ratio reported for U10A U11A C12G C13A please.
1.42

Quote aptazyme ON/OFF ratio reported for U7A U8G G9C U10G U11G C12U please.
1.2

Quote aptazyme ON/OFF ratio reported for U7A U8A C12G C13U please.
1.48

Quote aptazyme ON/OFF ratio reported for U7A U8C G9U U10A U11G C12G please.
1.12

Quote aptazyme ON/OFF ratio reported for U8A G9A U11G C12G C13U please.
1.27

Quote aptazyme ON/OFF ratio reported for U7C G9A U10A U11A C12G please.
1.2

Quote aptazyme ON/OFF ratio reported for U7C U8G G9U U10A U11C C12U C13U please.
1.06

Quote aptazyme ON/OFF ratio reported for U7A U8G G9A U11G C13G please.
1.16

Quote aptazyme ON/OFF ratio reported for U7G U8C G9U U10G U11G C12U C13A please.
1.17

Quote aptazyme ON/OFF ratio reported for U7A U8G G9U U10C U11A please.
3.38

Quote aptazyme ON/OFF ratio reported for U7C U8A G9U U11G C12A C13A please.
1.12

Quote aptazyme ON/OFF ratio reported for U7C U8C G9C U10A U11C C12U C13A please.
1.13

Quote aptazyme ON/OFF ratio reported for U7A U8G G9C U10A U11C C12U please.
1.04

Quote aptazyme ON/OFF ratio reported for G9U U10A U11A C12G C13G please.
1.51

Quote aptazyme ON/OFF ratio reported for U7G U8A G9U U10A U11A C12U please.
1.09

Quote aptazyme ON/OFF ratio reported for U8C G9C U11G C13A please.
1.09

Quote aptazyme ON/OFF ratio reported for U7A U8G U10G U11C C12U C13A please.
0.988

Quote aptazyme ON/OFF ratio reported for U7C U8G G9A U10C U11C C12G C13G please.
1.14

Quote aptazyme ON/OFF ratio reported for U7G U11G C12U C13G please.
1.12

Quote aptazyme ON/OFF ratio reported for U7A U8A U10A C13G please.
1.06

Quote aptazyme ON/OFF ratio reported for U7A U10G U11C C12A C13A please.
1.33

Quote aptazyme ON/OFF ratio reported for U8C G9C U11A please.
1.18

Quote aptazyme ON/OFF ratio reported for U8G U10C U11G C13G please.
1.07

Quote aptazyme ON/OFF ratio reported for G9C U10A U11A C13A please.
1.22

Quote aptazyme ON/OFF ratio reported for U7G U8C G9U U10C U11G C12U please.
2.47

Quote aptazyme ON/OFF ratio reported for U7C U8A G9A U10G U11A C12U C13G please.
1.12

Quote aptazyme ON/OFF ratio reported for U7A U8A G9U U10A C12A please.
1.27

Quote aptazyme ON/OFF ratio reported for U8C G9A U11A C12U C13U please.
1.29

Quote aptazyme ON/OFF ratio reported for U7G G9C U10A U11A C13G please.
1.11

Quote aptazyme ON/OFF ratio reported for U8G G9U U10G U11A C12U C13A please.
1.05

Quote aptazyme ON/OFF ratio reported for U7C G9U U10C U11A C12G please.
1.05

Quote aptazyme ON/OFF ratio reported for U7G U8A G9U U10G U11C C12A please.
1.14

Quote aptazyme ON/OFF ratio reported for U7G U8A G9U U10A U11C C12U C13A please.
1.07

Quote aptazyme ON/OFF ratio reported for U7G G9A U11A C12U C13U please.
1.19

Quote aptazyme ON/OFF ratio reported for G9C U10G U11G C12G C13U please.
1.1

Quote aptazyme ON/OFF ratio reported for G9U U10G U11C C12U C13U please.
1.18

Quote aptazyme ON/OFF ratio reported for U7A U8C U10C C12A C13G please.
1.15

Quote aptazyme ON/OFF ratio reported for U7A U10G U11C C12G C13G please.
1.11

Quote aptazyme ON/OFF ratio reported for U7G U8C G9U U10C C12U C13U please.
1.26

Quote aptazyme ON/OFF ratio reported for U7A G9A C12G C13U please.
1.17

Quote aptazyme ON/OFF ratio reported for U7G U8A U11A C12G C13U please.
1.21

Quote aptazyme ON/OFF ratio reported for U7C G9A U10A U11G C13A please.
1.07

Quote aptazyme ON/OFF ratio reported for U8C G9C U10G C12A C13A please.
1.13

Quote aptazyme ON/OFF ratio reported for U7G U11G C12A C13A please.
1.13

Quote aptazyme ON/OFF ratio reported for U7A U8C G9U U10A U11C C12G C13G please.
1.08

Quote aptazyme ON/OFF ratio reported for U7G G9C C12U C13U please.
1.33

Quote aptazyme ON/OFF ratio reported for U7C G9C U10G U11A C12A C13U please.
1.4

Quote aptazyme ON/OFF ratio reported for U7G U8C G9C U10G U11C C12G C13U please.
1.19

Quote aptazyme ON/OFF ratio reported for U8G U10A U11C C12A C13A please.
1.13

Quote aptazyme ON/OFF ratio reported for U7C U8C G9A U11A C12U C13U please.
1.21

Quote aptazyme ON/OFF ratio reported for U7C U8A G9A U10G C12A please.
1.15

Quote aptazyme ON/OFF ratio reported for U8A G9A U11C C12U please.
1.09

Quote aptazyme ON/OFF ratio reported for U7G U8A G9U U11A C12A C13G please.
1.11

Quote aptazyme ON/OFF ratio reported for U7C U8A G9U U11G C12G C13A please.
1.14

Quote aptazyme ON/OFF ratio reported for U7C U8G G9A U10G U11A C12G C13G please.
1.24

Quote aptazyme ON/OFF ratio reported for U7C G9A U10G U11C C12U C13A please.
1.2

Quote aptazyme ON/OFF ratio reported for U7A U8A G9A U10G U11G please.
1.07

Quote aptazyme ON/OFF ratio reported for U7A U8A G9U U10A U11C C12U C13A please.
1.06

Quote aptazyme ON/OFF ratio reported for U7A U8G G9C U10A C12A C13U please.
1.32

Quote aptazyme ON/OFF ratio reported for U7A U8A G9A U10C C12A C13A please.
1.13

Quote aptazyme ON/OFF ratio reported for U7G U8A G9A U10A C12U C13A please.
1.13

Quote aptazyme ON/OFF ratio reported for U7C U8G G9U U10G U11C C12U C13U please.
1.04

Quote aptazyme ON/OFF ratio reported for U7G U8C please.
1.32

Quote aptazyme ON/OFF ratio reported for U8A G9A U11G C12G C13G please.
1.26

Quote aptazyme ON/OFF ratio reported for U7A U8G G9C U10C U11G C12A please.
1.06

Quote aptazyme ON/OFF ratio reported for U7A U8A G9C U10G U11G C12A C13G please.
1.17

Quote aptazyme ON/OFF ratio reported for U7C U8A G9C U10A U11G C12A please.
1.06

Quote aptazyme ON/OFF ratio reported for U7A U8C G9U U10A C13G please.
1.08

Quote aptazyme ON/OFF ratio reported for U7C U8A U10C U11A C13A please.
1.12

Quote aptazyme ON/OFF ratio reported for U7C U8G G9A C12U C13A please.
1.16

Quote aptazyme ON/OFF ratio reported for U7G U8C U10G U11A C12U C13G please.
1.15

Quote aptazyme ON/OFF ratio reported for U7G U8C G9C U10A U11G C12U C13A please.
1.22

Quote aptazyme ON/OFF ratio reported for U7G U8C U10A U11C C12A please.
1.24

Quote aptazyme ON/OFF ratio reported for U7A U8G G9C U11C C12U C13A please.
1.41
